Reference source for all entries: patent US9957271B2

# Assay target: SIRT1 (Homo sapiens)
# Sequence (Q96EB6 1-747): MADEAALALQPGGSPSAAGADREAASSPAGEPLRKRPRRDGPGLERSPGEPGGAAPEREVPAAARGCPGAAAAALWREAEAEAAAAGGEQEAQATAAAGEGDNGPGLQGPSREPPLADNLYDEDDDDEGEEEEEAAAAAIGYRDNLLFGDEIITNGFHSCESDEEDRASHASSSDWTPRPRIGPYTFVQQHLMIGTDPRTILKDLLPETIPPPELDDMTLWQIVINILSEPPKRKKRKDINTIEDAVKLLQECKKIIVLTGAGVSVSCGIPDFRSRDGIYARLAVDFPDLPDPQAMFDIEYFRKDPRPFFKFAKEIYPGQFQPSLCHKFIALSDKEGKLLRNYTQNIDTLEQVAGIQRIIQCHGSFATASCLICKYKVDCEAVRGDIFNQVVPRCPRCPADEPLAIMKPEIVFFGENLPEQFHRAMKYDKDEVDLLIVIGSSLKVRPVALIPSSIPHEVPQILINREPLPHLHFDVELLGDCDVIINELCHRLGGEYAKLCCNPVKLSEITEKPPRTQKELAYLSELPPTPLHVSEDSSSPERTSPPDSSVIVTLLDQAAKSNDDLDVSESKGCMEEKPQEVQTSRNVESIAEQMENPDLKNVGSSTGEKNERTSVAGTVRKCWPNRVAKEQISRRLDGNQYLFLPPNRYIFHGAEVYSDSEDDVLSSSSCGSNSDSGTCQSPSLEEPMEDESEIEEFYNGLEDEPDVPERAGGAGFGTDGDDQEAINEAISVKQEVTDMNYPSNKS
# Experiment summary: TAMRA based mass spectrometry assay of SIRT1 activity
# Format: biochemical
# Experimental context: TAMRA assay; percent maximum fold activation; read-out: TAMRA % Fold Act
The following compounds are shown together with reported Emax values.

Cc1nc2ccc(-c3ccccc3C(F)(F)F)nn2c1NC(=O)c1cccc(N2CCC2)n1 ≥ 350%
Cc1nc(C(=O)Nc2cnc3ccc(-c4ccccc4F)nn23)c(C)s1 < 350%
O=C(Nc1cnc2ccc(-c3ccccc3F)nn12)c1ccccn1 < 350%
Cc1cnc(C(=O)Nc2c(C)nc3ccc(-c4ccccc4C(F)(F)F)nn23)s1 ≥ 350%
N#Cc1ccccc1-c1ccc2ncc(C(=O)Nc3ccnc(N4CCC4)c3)n2n1 ≥ 350%
O=C(Nc1cnc2ccc(-c3ccccc3F)nn12)c1cnccn1 < 350%
O=C(Nc1ccnc(OCC(F)(F)F)n1)c1cnc2ccc(-c3ccccc3C(F)(F)F)nn12 < 350%

Reported Emax ( Cc1cc(NC(=O)c2c(O)nc3ccc(-c4ccccc4C(F)(F)F)nn23)ccn1 ) = < 350%

* * *

# Assay target: SIRT1 (Homo sapiens)
# Sequence (Q96EB6 1-747): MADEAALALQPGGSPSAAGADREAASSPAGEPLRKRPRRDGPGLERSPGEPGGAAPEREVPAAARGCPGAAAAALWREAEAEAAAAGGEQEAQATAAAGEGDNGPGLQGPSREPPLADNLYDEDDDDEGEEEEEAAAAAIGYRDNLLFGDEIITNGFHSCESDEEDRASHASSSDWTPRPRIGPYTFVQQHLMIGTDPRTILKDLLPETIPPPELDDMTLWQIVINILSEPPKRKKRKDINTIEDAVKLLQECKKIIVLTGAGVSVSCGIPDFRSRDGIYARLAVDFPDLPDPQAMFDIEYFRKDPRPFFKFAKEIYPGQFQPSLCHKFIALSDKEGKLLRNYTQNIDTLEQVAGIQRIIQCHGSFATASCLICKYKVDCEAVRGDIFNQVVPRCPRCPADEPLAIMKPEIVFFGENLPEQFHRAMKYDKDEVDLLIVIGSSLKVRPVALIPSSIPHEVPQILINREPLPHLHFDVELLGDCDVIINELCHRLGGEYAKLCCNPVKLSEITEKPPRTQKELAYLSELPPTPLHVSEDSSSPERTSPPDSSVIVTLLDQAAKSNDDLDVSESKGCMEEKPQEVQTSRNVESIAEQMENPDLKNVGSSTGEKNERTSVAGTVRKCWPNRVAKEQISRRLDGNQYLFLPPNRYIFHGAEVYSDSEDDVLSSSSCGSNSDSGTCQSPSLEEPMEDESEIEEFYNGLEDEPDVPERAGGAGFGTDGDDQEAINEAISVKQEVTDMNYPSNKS
# Experiment summary: TAMRA based mass spectrometry assay of SIRT1 activity
# Assay type: biochemical
# Experimental context: TAMRA assay; concentration giving 150% activation of SIRT1
Value type: TAMRA EC1.5 (μM)

Compound	Value type	Value measured
O=C(Nc1ccncn1)c1cnc2ccc(-c3ccccc3OC(F)(F)F)nn12	TAMRA EC1.5 (μM)	A (EC1.5<1 μM)
O=C(Nc1cnc2ccc(-c3ccccc3C(F)(F)F)nn12)c1cccc(OC[C@H](O)CO)n1	TAMRA EC1.5 (μM)	A (EC1.5<1 μM)
CCOc1nccc(NC(=O)c2c(C)nn3ccc(-c4ccccc4C(F)(F)F)nc23)n1	TAMRA EC1.5 (μM)	A (EC1.5<1 μM)
Cc1cncc(C(=O)Nc2cnc3ccc(-c4ccccc4C(F)(F)F)nn23)c1	TAMRA EC1.5 (μM)	B (EC1.5 1-25 μM)
O=C(Nc1ccccn1)c1cnc2ccc(-c3cccc(OCC(O)CO)c3)nn12 (stereo not shown)	TAMRA EC1.5 (μM)	B (EC1.5 1-25 μM)

Record summary for O=C(Nc1ccncn1)c1cnc2ccc(-c3ccccc3OC[C@H](O)CO)nn12 : reported TAMRA EC1.5 (μM) = B (EC1.5 1-25 μM)

The compound identified as Cc1nccc(C(=O)Nc2cnn3ccc(-c4ccccc4C(F)(F)F)nc23)n1 registered its TAMRA EC1.5 (μM) at A (EC1.5<1 μM)

// Cc1nc2ccc(-c3ccccc3C(F)(F)F)nn2c1C(=O)Nc1ccc(Cl)cn1 : TAMRA EC1.5 (μM) value = A (EC1.5<1 μM)

The value of TAMRA EC1.5 (μM) measured for the compound Cc1nc(C(=O)Nc2c(C)nc3ccc(-c4ccccc4C(F)(F)F)nn23)c(C)s1 turned out to be B (EC1.5 1-25 μM)
